biological target: Peroxisome proliferator-activated receptor gamma (Homo sapiens) (UniProt P37231); assay: qHTS assay to identify small molecule antagonists of the peroxisome proliferator-activated receptor gamma (PPARg) signaling pathway (AID 743191); conditions: HEK293H PPARg-UAS-bla, beta-lactamase ratio, antagonist, 17 h; series mostly up to 62.6 µM; note: nearly all actives have a fitted effect of over 30% in size
Sequence (P37231 whole entry, looked up): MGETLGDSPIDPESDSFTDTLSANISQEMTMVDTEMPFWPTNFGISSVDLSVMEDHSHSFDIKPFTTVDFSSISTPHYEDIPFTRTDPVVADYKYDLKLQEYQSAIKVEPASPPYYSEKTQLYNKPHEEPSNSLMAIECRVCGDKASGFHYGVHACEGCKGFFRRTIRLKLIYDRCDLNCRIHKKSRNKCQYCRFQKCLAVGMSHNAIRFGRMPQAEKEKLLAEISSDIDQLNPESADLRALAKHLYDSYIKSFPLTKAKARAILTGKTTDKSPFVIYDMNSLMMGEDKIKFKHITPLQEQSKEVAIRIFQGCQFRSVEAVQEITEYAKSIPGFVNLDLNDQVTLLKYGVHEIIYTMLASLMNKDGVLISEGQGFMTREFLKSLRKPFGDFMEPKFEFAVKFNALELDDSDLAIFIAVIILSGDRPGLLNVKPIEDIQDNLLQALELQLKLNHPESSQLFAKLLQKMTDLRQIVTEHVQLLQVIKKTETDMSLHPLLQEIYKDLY
Inconclusive results are not listed. Calls of active or inactive are those of the source. Calls come from the whole dose curve.
VALUE_KIND: outcome

{"COMPOUND": "CCC(C)(O)CCCC(C)C (stereo not drawn)", "TEST_VALUE": "inactive"}
{"COMPOUND": "CC(=O)CC/C=C(\\C)CCC=C(C)C", "TEST_VALUE": "inactive"}
{"COMPOUND": "CN(C)CCC=C1c2ccccc2CCc2ccccc21", "TEST_VALUE": "inactive"}

###

target: Estrogen receptor (Homo sapiens) (UniProt P03372); assay: qHTS assay to identify small molecule antagonists of the estrogen receptor alpha (ER-alpha) signaling pathway using the BG1 cell line in the presence of 0.1 nM 17-beta-estradiol (AID 1259244); conditions: VM7Luc4E2 (BG1) ERE-luciferase, antagonist mode, 0.1 nM E2, 22 h; series mostly up to 92.4 µM; note: nearly all actives have a fitted effect of over 50% in size
Sequence (P03372 whole entry, looked up): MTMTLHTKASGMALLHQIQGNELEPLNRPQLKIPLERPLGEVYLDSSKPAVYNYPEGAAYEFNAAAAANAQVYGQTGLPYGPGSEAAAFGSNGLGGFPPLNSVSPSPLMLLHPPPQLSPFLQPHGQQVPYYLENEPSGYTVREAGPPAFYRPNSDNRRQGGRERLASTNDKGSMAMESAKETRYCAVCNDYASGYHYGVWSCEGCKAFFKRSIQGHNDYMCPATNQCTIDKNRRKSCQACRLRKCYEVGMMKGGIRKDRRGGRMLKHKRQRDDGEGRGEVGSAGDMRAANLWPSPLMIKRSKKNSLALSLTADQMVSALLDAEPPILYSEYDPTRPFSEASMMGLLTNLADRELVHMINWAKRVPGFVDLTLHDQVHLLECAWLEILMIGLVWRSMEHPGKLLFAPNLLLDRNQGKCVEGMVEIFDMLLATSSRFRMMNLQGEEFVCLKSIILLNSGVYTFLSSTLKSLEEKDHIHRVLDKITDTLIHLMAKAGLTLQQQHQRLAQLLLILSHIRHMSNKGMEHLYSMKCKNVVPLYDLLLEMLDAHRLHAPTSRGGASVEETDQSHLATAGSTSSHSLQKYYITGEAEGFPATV
Records with an inconclusive call do not appear. Activity calls are given as the source filed them. Calls come from the whole dose curve; as a rule, active = well fitted inhibition curve with a large enough effect in the repeat runs; inconclusive = weak or mixed curves; inactive = no such curve, though single readings can be large or run the other way.
Pick one and only one: active, inactive

{"MOLECULE": "O=C(c1ccccc1)c1ccc(O)cc1O", "LABEL": "inactive"}
{"MOLECULE": "c1ccncc1", "LABEL": "inactive"}
{"MOLECULE": "COC(C)COC(C)COC(C)CO (configuration not stated)", "LABEL": "inactive"}
{"MOLECULE": "O=C(/C=C/C=C/c1ccc2c(c1)OCO2)N1CCCCC1", "LABEL": "inactive"}
{"MOLECULE": "CC(C(=O)O)c1cccc(C(=O)c2ccccc2)c1 (configuration not stated)", "LABEL": "inactive"}

Now let's try a different one.
For c1cc(-c2ccncc2)ccn1 , which call appears in the assay record? inactive

###

molecular target: Progesterone receptor (Homo sapiens) (UniProt P06401); experiment: qHTS assay to identify small molecule agonists of the progesterone receptor (PR) signaling pathway (AID 1346784); settings: PR-UAS-bla HEK293T, beta-lactamase FRET ratio, 16 h; series mostly up to 92.4 µM; note: nearly all actives have a fitted effect of over 30% in size
Sequence (P06401 whole entry, looked up): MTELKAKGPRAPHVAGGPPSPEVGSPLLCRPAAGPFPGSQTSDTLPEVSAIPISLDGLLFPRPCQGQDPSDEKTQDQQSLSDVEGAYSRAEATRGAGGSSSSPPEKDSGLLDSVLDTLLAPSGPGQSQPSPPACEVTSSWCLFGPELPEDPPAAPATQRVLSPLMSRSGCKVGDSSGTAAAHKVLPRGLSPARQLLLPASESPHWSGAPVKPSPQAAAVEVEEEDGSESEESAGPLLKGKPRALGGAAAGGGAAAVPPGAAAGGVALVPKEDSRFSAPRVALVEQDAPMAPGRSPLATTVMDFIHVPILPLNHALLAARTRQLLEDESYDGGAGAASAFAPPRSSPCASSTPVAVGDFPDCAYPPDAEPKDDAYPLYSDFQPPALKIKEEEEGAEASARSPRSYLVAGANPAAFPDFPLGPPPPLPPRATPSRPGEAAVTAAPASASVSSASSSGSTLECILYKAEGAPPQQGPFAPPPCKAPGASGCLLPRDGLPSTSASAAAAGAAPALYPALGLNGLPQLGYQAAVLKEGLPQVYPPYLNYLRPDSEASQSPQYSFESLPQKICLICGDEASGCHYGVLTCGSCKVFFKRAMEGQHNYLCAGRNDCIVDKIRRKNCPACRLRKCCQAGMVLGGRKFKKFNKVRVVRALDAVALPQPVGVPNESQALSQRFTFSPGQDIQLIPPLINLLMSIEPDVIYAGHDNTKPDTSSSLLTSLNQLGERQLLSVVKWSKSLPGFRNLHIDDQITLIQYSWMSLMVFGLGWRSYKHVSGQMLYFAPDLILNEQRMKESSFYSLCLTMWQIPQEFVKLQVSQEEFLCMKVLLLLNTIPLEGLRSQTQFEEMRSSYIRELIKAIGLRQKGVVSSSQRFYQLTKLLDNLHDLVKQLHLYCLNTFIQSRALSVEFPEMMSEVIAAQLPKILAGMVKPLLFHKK
Inconclusive results are not listed. Calls of active or inactive are those of the source. Calls come from the whole dose curve.
The reply should name one outcome from active, inactive

Solved cases (6 shown):
{"COMPOUND": "COC(=O)Nc1nc2ccc(S(=O)c3ccccc3)cc2[nH]1 (centres undefined)", "LABEL": "inactive"}
{"COMPOUND": "CCC(C)(O)CCCC(C)C (centres undefined)", "LABEL": "inactive"}
{"COMPOUND": "CN(C)CCC=C1c2ccccc2CCc2ccccc21", "LABEL": "inactive"}
{"COMPOUND": "c1ccc2cc(Nc3ccc(Nc4ccc5ccccc5c4)cc3)ccc2c1", "LABEL": "inactive"}
{"COMPOUND": "C[C@]12CC[C@H]3[C@@H](CCC4=CC(=O)CC[C@@]43C)[C@@H]1CC[C@@H]2C(=O)CO", "LABEL": "active"}
{"COMPOUND": "c1ccc(Nc2ccccc2)cc1", "LABEL": "inactive"}

Tell me the assay call for OC1CCCCCCCCCCC1 please. inactive

###

experiment: qHTS assay to identify small molecule agonists of the sonic hedgehog signaling (Shh) pathway (AID 1259368); settings: NIH/3T3 Gli1-Luc reporter, luciferase, 24 h; series mostly up to 92.4 µM;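 note: NIH/3T3-derived 3T3Gli1-Luc cells carrying a stable Gli1-driven firefly luciferase reporter; nearly all actives have a fitted effect of over 15% in size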
Calls of active or inactive are those of the source. The call rests on the fitted dose curve.
VALUE_KIND: outcome

Guide cases for outcome, answers given:
{"MOLECULE": "CCCCC(CC)COC(=O)c1ccc(N(C)C)cc1 (configuration not stated)", "VALUE_KIND": "outcome", "TEST_VALUE": "inactive"}
{"MOLECULE": "CC(=O)O[C@]1(C(C)=O)CC[C@H]2[C@@H]3C=C(Cl)C4=CC(=O)[C@@H]5C[C@@H]5[C@]4(C)[C@H]3CC[C@@]21C", "VALUE_KIND": "outcome", "TEST_VALUE": "inactive"}
{"MOLECULE": "CCCCc1oc2ccccc2c1C(=O)c1cc(I)c(OCCN(CC)CC)c(I)c1", "VALUE_KIND": "outcome", "TEST_VALUE": "inactive"}
{"MOLECULE": "C#C[C@]1(O)CC[C@H]2[C@@H]3CCC4=Cc5oncc5C[C@]4(C)[C@H]3CC[C@@]21C", "VALUE_KIND": "outcome", "TEST_VALUE": "inactive"}
{"MOLECULE": "CCOCCOCCO", "VALUE_KIND": "outcome", "TEST_VALUE": "inactive"}
{"MOLECULE": "c1ccc(Nc2ccccc2)cc1", "VALUE_KIND": "outcome", "TEST_VALUE": "inactive"}

Next up:
If you can, please state the reported outcome value of CCCc1c(OCCCCc2nn[nH]n2)ccc(C(C)=O)c1O . inactive

###

assay: A CellTox Green Cytotoxicity Assay to monitor cytotoxicity in HepG2 cells - 32 hour (AID 1224883); settings: CellTox Green fluorescence; series mostly up to 76.8 µM; note: nearly all actives have a fitted effect of over 50% in size
Records with an inconclusive call do not appear. Active and inactive are the calls of the source. Calls follow the shape of the dose curve; as a rule, active = well fitted activation curve with a large enough effect in the repeat runs; inconclusive = weak or mixed curves; inactive = flat fitted curve, though single readings scatter.
// one of 1 (yes) for active, 0 (no) for inactive, no free text

{"COMPOUND": "CCCCNS(=O)(=O)c1ccccc1", "LABEL": "0 (no)"}
{"COMPOUND": "CC(C)=CCC/C(C)=C\\CO", "LABEL": "0 (no)"}
{"COMPOUND": "CC(C)OB(OC(C)C)OC(C)C", "LABEL": "0 (no)"}
{"COMPOUND": "Nc1ccccc1N", "LABEL": "1 (yes)"}
{"COMPOUND": "C#C[C@]1(O)CC[C@H]2[C@@H]3CCc4cc(OC)ccc4[C@H]3CC[C@@]21C", "LABEL": "1 (yes)"}
{"COMPOUND": "Nc1ccc(S(=O)(=O)Nc2cnc3ccccc3n2)cc1", "LABEL": "0 (no)"}

Called result for C[C@]12CC[C@H]3[C@@H](CCC4=CC(=O)CC[C@@]43C)[C@@H]1CC[C@@H]2C(=O)CO 0 (no)

What is the recorded call for this compound in the test? Cc1cccc(N(C)C(=S)Oc2ccc3ccccc3c2)c1 0 (no)

For this compound, state the assay outcome: O=C(Nc1ccc(Cl)cc1)Nc1ccc(Cl)c(Cl)c1 0 (no)

###

experiment: Caspase-3/7 induction in HepG2 cells by small molecules, qHTS cell viability counter screen (AID 1346981); conditions: CellTiter-Fluor fluorescence, 17 h; series mostly up to 92.4 µM; note: nearly all actives have a fitted effect of over 30% in size
Records with an inconclusive call do not appear. Calls of active or inactive are those of the source. Calls follow the shape of the dose curve; as a rule, active = well fitted cell-killing curve with a large enough effect in the repeat runs; inconclusive = weak or mixed curves, or effect the other way; inactive = flat fitted curve, though single readings scatter.
VALUE_KIND: outcome

Examples from the recorded data:
{"COMPOUND": "O=C(/C=C/C=C/c1ccc2c(c1)OCO2)N1CCCCC1", "outcome": "inactive"}
{"COMPOUND": "CCC(C)OC(=O)c1ccc(O)cc1 (centres undefined)", "outcome": "inactive"}
{"COMPOUND": "COc1ccc(OC)c(C(O)CNC(=O)CN)c1 (centres undefined)", "outcome": "inactive"}
{"COMPOUND": "Cc1cccc(N(C)C(=S)Oc2ccc3ccccc3c2)c1", "outcome": "inactive"}
{"COMPOUND": "COC(=O)Nc1nc2ccc(S(=O)c3ccccc3)cc2[nH]1 (centres undefined)", "outcome": "inactive"}
{"COMPOUND": "CCCCCCCCCCCO", "outcome": "inactive"}

Form field: reported outcome of COc1ccccc1/C=C/C=O inactive

Recorded outcome of O=[N+]([O-])c1ccc2c(c1)Cc1ccccc1-2 , please. inactive

Query (compound): C/C=C/C(=O)O ; field requested: outcome inactive

# get_value(readout='outcome', item= CC(CCC(=O)O)(c1ccc(O)cc1)c1ccc(O)cc1 ) inactive

Name the recorded outcome for c1ccc2cc(Nc3ccc(Nc4ccc5ccccc5c4)cc3)ccc2c1 . inactive

Item Cc1c(C(N)=O)cc([N+](=O)[O-])cc1[N+](=O)[O-] has what recorded outcome? inactive

Which measured outcome value corresponds to COC(=O)CCC(=O)OC ? inactive

outcome lookup needed for S=C(NC1CCCCC1)NC1CCCCC1 , thanks. inactive

###

assay: qHTS assay to identify small molecule antagonists of the estrogen related receptor (ERR) signaling pathway from Tox21 library - cell viability counter screen (AID 1224834); conditions: ERR reporter cells viability, CellTiter-Fluor, 17.5 h; series mostly up to 92.4 µM; note: nearly all actives have a fitted effect of over 30% in size
Records with an inconclusive call do not appear. Calls of active or inactive are those of the source. The call rests on the fitted dose curve; in most records, active means well fitted cell-killing curve with a large enough effect in the repeat runs; inconclusive means weak or mixed curves; inactive means flat fitted curve, though single readings scatter.
Your answer must be one of the following: 1.0 (active), 0.0 (inactive)

Examples with answers:
{"COMPOUND": "CCCCOCCOCCOCCO", "LABEL": 0.0}
{"COMPOUND": "Cc1ccc(C)c(O)c1C", "LABEL": 0.0}
{"COMPOUND": "S=C(NC1CCCCC1)NC1CCCCC1", "LABEL": 1.0}

What is the recorded call for this compound in the test? OC[C@H]1O[C@@H]2O[C@H]3[C@H](O)[C@@H](O)[C@@H](O[C@H]4[C@H](O)[C@@H](O)[C@@H](O[C@H]5[C@H](O)[C@@H](O)[C@@H](O[C@H]6[C@H](O)[C@@H](O)[C@@H](O[C@H]7[C@H](O)[C@@H](O)[C@@H](O[C@H]8[C@H](O)[C@@H](O)[C@@H](O[C@H]1[C@H](O)[C@H]2O)O[C@@H]8CO)O[C@@H]7CO)O[C@@H]6CO)O[C@@H]5CO)O[C@@H]4CO)O[C@@H]3CO 0.0

Called result for CC(=O)CC/C=C(\C)CCC=C(C)C 0.0

Hey, what did the test say about CCCc1c(OCCCCc2nn[nH]n2)ccc(C(C)=O)c1O ? 0.0

Per the assay record, what outcome was assigned to CCOCCOCCO ? 0.0

# fetch the recorded call for CC(=O)C1(C)CC2=C(CCCC2(C)C)CC1C (configuration not stated) here 0.0

Please let me know the test result on file for O=CCc1ccccc1 . 0.0

What is the recorded call for this compound in the test? CCC(C)CO (configuration not stated) 0.0

# fetch the recorded call for O=C(O)c1ccccc1Nc1cccc(C(F)(F)F)c1 here 0.0

So what was the verdict on CC(C)=CCCC(C)CCO (configuration not stated) in this test? 0.0

Recorded call for O=S(=O)(O)c1ccc(O)cc1 ? 0.0

// param item: NNc1ccc(C(=O)O)cc1 ; yields the recorded call 0.0
